Experiment: Comparison of pharmacokinetics in Beagle dogs
Type: in vivo
Conditions: male, dog, plasma, intravenous injection 1 mg/kg
Method: Test 2: Comparison of Pharmacokinetics in Beagle Dogs In this study, male Beagle dogs were given the compounds of the examples and vinpocetine (as a control compound) by intravenous injection or oral administration, respectively, then the drug concentration in plasma at different time points was determined by the LC/MS/MS method, so as to investigate the pharmacokinetic characteristics of the two test drugs in Beagle dogs. […]
readout-type: clearance (mL/min/kg)
Give the value in mL/min/kg but do not write mL/min/kg after it.

Note to self: clearance recorded for CCOC(=O)C1=C[C@]2(CC)CCCN3CCc4c(n1c1ccccc41)[C@@H]32 [Vinpocetine, reference compound] was 80.5

Note to self: clearance recorded for `CC[C@@]12C=C(c3nc(C)no3)n3c4c(c5ccccc53)CCN(CCC1)[C@H]42` was 12

====

PDE1A (Homo sapiens, UniProt P54750) measurements of IC50, listed per entry.

Worked cases, answers included:
{"smiles-code": "CC[C@@]12C=C(c3nc(C)no3)n3c4c(c5c(S(=O)(=O)N(C)C)cccc53)CCN(CCC1)[C@H]42", "IC50": "20 to 100 µM"}
{"smiles-code": "CC[C@@]12C=C(c3nc(C)c(C#N)o3)n3c4c(c5ccccc53)CCN(CCC1)[C@H]42", "IC50": "≤ 1 µM"}
{"smiles-code": "CC[C@@]12C=C(c3nc(C)no3)n3c4c(c5ccc(S(=O)(=O)N(C)C)cc53)CCN(CCC1)[C@H]42", "IC50": "20 to 100 µM"}
{"smiles-code": "CC[C@@]12C=C(c3nc(-c4ccccc4)no3)n3c4c(c5ccccc53)CCN(CCC1)[C@H]42", "IC50": "> 100 µM"}
{"smiles-code": "CC[C@@]12C=C(c3cn4ccc(C(F)(F)F)cc4n3)n3c4c(c5ccccc53)CCN(CCC1)[C@H]42", "IC50": "20 to 100 µM"}
{"smiles-code": "CC[C@@]12C=C(c3noc(C4CCOCC4)n3)n3c4c(c5ccccc53)CCN(CCC1)[C@H]42", "IC50": "1 to 20 µM"}
{"smiles-code": "CC[C@@]12C=C(c3nc(C)c(C(=O)NC)o3)n3c4c(c5ccccc53)CCN(CCC1)[C@H]42", "IC50": "≤ 1 µM"}
{"smiles-code": "CC[C@@]12C=C(c3nc(-c4ccncc4)no3)n3c4c(c5ccccc53)CCN(CCC1)[C@H]42", "IC50": "1 to 20 µM"}

The observed IC50 for `CC[C@@]12C=C(c3nc(C)c(C(C)C)o3)n3c4c(c5ccccc53)CCN(CCC1)[C@H]42` when tested with PDE1A (Homo sapiens, UniProt P54750) stands at 1 to 20 µM

The observed IC50 for `CC[C@@]12C=C(c3nc(C)c(N4CCOCC4)o3)n3c4c(c5ccccc53)CCN(CCC1)[C@H]42` when tested with PDE1A (Homo sapiens, UniProt P54750) stands at ≤ 1 µM

The observed IC50 for `CC[C@@]12C=C(c3ccno3)n3c4c(c5ccccc53)CCN(CCC1)[C@H]42` when tested with PDE1A (Homo sapiens, UniProt P54750) stands at 20 to 100 µM

The observed IC50 for `CC[C@@]12C=C(c3nc(C)c(C(=O)OC)o3)n3c4c(c5ccccc53)CCN(CCC1)[C@H]42` when tested with PDE1A (Homo sapiens, UniProt P54750) stands at ≤ 1 µM

====

Readings of pIC50 for the listed molecules
target: PDE1A (Homo sapiens); construct: purchased SignalChem; assay: In vitro detection of phosphodiesterase (PDE): PDE1A enzyme activity by fluorescence polarization immunoassay; assay type: biochemical; conditions: human-derived enzyme, cAMP or cGMP substrate; read-out: IC50s for PDE1
pIC50: −log10 of the molar value.

Worked cases, answers included:
{"smiles-code": "CC[C@@]12C=C(c3nc(C)c(C)o3)n3c4c(c5cc(S(=O)(=O)N(C)C)ccc53)CCN(CCC1)[C@H]42", "readout-type": "pIC50", "result-value": "4.70 to 6.00"}
{"smiles-code": "CC[C@@]12C=C(c3noc(-c4ccc(F)cc4)n3)n3c4c(c5ccccc53)CCN(CCC1)[C@H]42", "readout-type": "pIC50", "result-value": "< 4.00"}
{"smiles-code": "CC[C@@]12C=C(c3ncccc3C)n3c4c(c5ccccc53)CCN(CCC1)[C@H]42", "readout-type": "pIC50", "result-value": "4.00 to 4.70"}

Note to self: pIC50 recorded for `CC[C@@]12C=C(c3cc(C)no3)n3c4c(c5ccccc53)CCN(CCC1)[C@H]42` was 4.70 to 6.00

Note to self: pIC50 recorded for `CC[C@@]12C=C(c3noc(C(F)(F)F)n3)n3c4c(c5ccccc53)CCN(CCC1)[C@H]42` was < 4.00

Note to self: pIC50 recorded for `CC[C@@]12C=C(c3nc(C)c(C(C)(C)O)o3)n3c4c(c5ccccc53)CCN(CCC1)[C@H]42` was 4.70 to 6.00

Note to self: pIC50 recorded for `CC[C@@]12C=C(c3cnc(C)c(C)n3)n3c4c(c5ccccc53)CCN(CCC1)[C@H]42` was 4.70 to 6.00

====

pIC50: −log10 of the molar value.
PDE1A (Homo sapiens, UniProt P54750) measurements of pIC50, listed per entry.

{"molecule": "CC[C@@]12C=C(c3noc(-c4ccncc4)n3)n3c4c(c5ccccc53)CCN(CCC1)[C@H]42 [Example 24]", "readout-type": "pIC50", "result-value": "4.00 to 4.70"}
{"molecule": "CC[C@@]12C=C(/C(C#N)=N/OC)n3c4c(c5ccccc53)CCN(CCC1)[C@H]42 [Example 2]", "readout-type": "pIC50", "result-value": "4.70 to 6.00"}
{"molecule": "CC[C@@]12C=C(c3nc(C)c(OC)o3)n3c4c(c5ccccc53)CCN(CCC1)[C@H]42 [Example 41]", "readout-type": "pIC50", "result-value": "≥ 6.00"}
{"molecule": "CC[C@@]12C=C(c3nc(C)c(C(N)=O)o3)n3c4c(c5ccccc53)CCN(CCC1)[C@H]42 [Example 62]", "readout-type": "pIC50", "result-value": "4.70 to 6.00"}
{"molecule": "CC[C@@]12C=C(c3nc(-c4ccc(F)cc4)no3)n3c4c(c5ccccc53)CCN(CCC1)[C@H]42 [Example 32]", "readout-type": "pIC50", "result-value": "< 4.00"}
{"molecule": "CCOC(=O)/C=C/C1=C[C@]2(CC)CCCN3CCc4c(n1c1ccccc41)[C@@H]32 [Example 6]", "readout-type": "pIC50", "result-value": "4.70 to 6.00"}
{"molecule": "CC[C@@]12C=C(c3nc4c(o3)CCOC4)n3c4c(c5ccccc53)CCN(CCC1)[C@H]42 [Example 66]", "readout-type": "pIC50", "result-value": "≥ 6.00"}
{"molecule": "CC[C@@]12C=C(c3nc(C(F)(F)F)no3)n3c4c(c5ccccc53)CCN(CCC1)[C@H]42 [Example 22]", "readout-type": "pIC50", "result-value": "4.00 to 4.70"}

The observed pIC50 for CC[C@@]12C=C(c3n[nH]c(=O)o3)n3c4c(c5ccccc53)CCN(CCC1)[C@H]42 [Example 16] when tested with PDE1A (Homo sapiens, UniProt P54750) stands at 4.70 to 6.00

====

assay: Comparison of pharmacokinetics in Beagle dogs; type: in vivo; settings: male, dog, plasma, intravenous injection 1 mg/kg, read-out: Half-life period (converted)
readout-type: half-life (h)
Give the value in h but do not write h after it.

{"compound": "CCOC(=O)C1=C[C@]2(CC)CCCN3CCc4c(n1c1ccccc41)[C@@H]32 [Vinpocetine, reference compound]", "result-value": 6.03}

Please examine the following record next.
Note to self: half-life recorded for `CC[C@@]12C=C(c3nc(C)no3)n3c4c(c5ccccc53)CCN(CCC1)[C@H]42` was 9.42

====

PDE1A (Homo sapiens, UniProt P54750) measurements of IC50, listed per entry.

{"smiles-code": "CC[C@@]12C=C(c3nc(C)c(C)o3)n3c4c(c5ccc(S(=O)(=O)NC)cc53)CCN(CCC1)[C@H]42", "IC50": "≤ 1 µM"}
{"smiles-code": "CC[C@@]12C=C(c3nc(C)c(C)o3)n3c4c(c5c(S(=O)(=O)N(C)C)cccc53)CCN(CCC1)[C@H]42", "IC50": "1 to 20 µM"}
{"smiles-code": "CC[C@@]12C=C(c3nc(C)ns3)n3c4c(c5ccccc53)CCN(CCC1)[C@H]42", "IC50": "1 to 20 µM"}

Please examine the following record next.
The observed IC50 for `CCc1noc(C2=C[C@]3(CC)CCCN4CCc5c(n2c2ccccc52)[C@@H]43)n1` when tested with PDE1A (Homo sapiens, UniProt P54750) stands at 1 to 20 µM
